# GI50 per entry
system: Malme-3M; test: NCI tumour cell line growth inhibition, 48 h
Active and inactive are the calls of the source. No stated cut-off is given here; in the data, active = GI50 up to about 1.1 µM and inactive = higher.

compound	GI50
Cc1cc2c(cc1C)[n+]([O-])c(C(=O)C/C(=N/NC(=S)NN)C(=O)Nc1cccc(C(F)(F)F)c1)c[n+]2[O-]	> 100 µM (inactive)
C/C(CN1C(=O)c2ccccc2C1=O)=N\NS(=O)(=O)c1cccc([N+](=O)[O-])c1	> 100 µM (inactive)
Nc1ccc(S(=O)(=O)Nc2cnc3ccccc3n2)cc1	> 96.6 µM (inactive)
COc1cc2c(cc1OC)C1(COc3cc(O)c(O)c(O)c3C1=O)C2 (stereo unspecified)	> 50 µM (inactive)
CCCCCCCCOCC(O)COC (stereo unspecified)	> 100 µM (inactive)
Cc1nn(-c2ccccc2)c2c1N=C(C(=O)O)CC(c1ccccc1)=N2	> 10 µM (inactive)
CC1(Br)S(=O)(=O)OCCOS1(=O)=O	> 100 µM (inactive)
Cn1c2ccccc2c(=O)c2c(O)cc3c(c21)C=CC1(CCCCC1)O3	> 10 µM (inactive)
O=c1cc(O)c1=O	> 100 µM (inactive)
CCCC1(N2C(=O)c3ccc4c5c(ccc(c35)C2=O)N(C2(CCC)CCCCC2)C4=O)CCCCC1	> 100 µM (inactive)
CC(=O)N1[C@H](C(=O)O)CS[C@H]1c1ccc(F)cc1	> 100 µM (inactive)

====

# GI50 per entry
system: EKVX; experiment: NCI tumour cell line growth inhibition, 48 h
Active and inactive are the calls of the source. Cut-off read from the data, not from the text of the source: active = GI50 up to about 1.1 µM and inactive = higher.

molecule	GI50
Oc1ccccc1C1=NOC(c2ccc(C(F)(F)F)cc2)C1 (configuration not stated)	> 50 µM (inactive)
CC(=O)NNc1nc(C)c(C(=O)NNC(=O)C(=O)Nc2ccc(Cl)cc2Cl)s1	40.1 µM (inactive)
CCOC(=O)c1[nH]c(Br)c(-c2ccc(Br)cc2)c1Br	7.18 µM (inactive)
CC(C)=NOC(=O)OC[C@H]1O[C@@H](n2cnc3c(N)ncnc32)C(O)C1O (some centres not stated)	> 100 µM (inactive)
COC(=O)[C@H](Cc1ccccc1)NP(=O)(O)OCC1OC(n2cc(C)c(=O)[nH]c2=O)CC1N=[N+]=[N-] (some centres not stated)	> 100 µM (inactive)
CC1(C)OC2C(CO)OC(n3ccc(=O)[nH]c3=O)C2O1 (configuration not stated)	> 100 µM (inactive)
CSC1=Nc2ccccc2-c2nc(-c3ccccc3)cc(-c3ccccc3)c2C1	23.1 µM (inactive)
CCCCCCc1cc2cc(-c3csc(CC#N)n3)c(=O)oc2cc1O	> 100 µM (inactive)
COc1ccc(Cc2c3cc(O)c([O-])cc3cc[n+]2C)cc1	> 73.6 µM (inactive)
Oc1ccnc(SCc2ccc(Cl)cc2)n1	> 100 µM (inactive)
Cc1nc(Nc2ccc([N+](=O)[O-])cc2)sc1C(/C=C/c1ccc(N(C)C)cc1)=N/NC(=O)c1ccccc1	41.2 µM (inactive)
CC(=O)Oc1cc(C)c(OC(C)=O)c2c1[C@H]1CC[C@]3(C)[C@@H](OC(C)=O)CC[C@H]3[C@@H]1CC2	13.5 µM (inactive)
COC(=O)N/N=C(/CCC(=O)Nc1ccc(C)c(C)c1)CC(=O)C(C)(C)C	> 100 µM (inactive)
COC(=O)N1C[C@@]2(C=CC3(CC2)OCCO3)c2ccccc21	62.1 µM (inactive)
CS(=O)(=O)Nc1ccc2ccccc2c1	57.3 µM (inactive)
OC(c1ccccc1)C(F)(F)c1nc2ccccc2o1 (configuration not stated)	> 100 µM (inactive)
O=C(O)c1c([N+](=O)[O-])cc(C(F)(F)F)cc1[N+](=O)[O-]	> 100 µM (inactive)
CCCCCCCCCCC(=O)CCCCCCC(=O)O	31.8 µM (inactive)
CCOC(=O)C1=NOC2(C=C(Br)C(=O)C(Br)=C2)C1	2.22 µM (inactive)
O=C1OC(c2ccccc2)=N/C1=C/NC(Cc1ccccc1)C(=O)O (configuration not stated)	> 100 µM (inactive)
COc1cc2c(C)cc(O)cc2c2cc(O)c(C)cc12	11.7 µM (inactive)
O=C(Nc1ccc(Cl)c(Cl)c1)C(=O)C(C(=O)c1ccccc1F)C1OC(=O)c2ccccc21 (configuration not stated)	22.4 µM (inactive)
COc1ccc(/C(C#N)=C(/N)SCc2ccccc2Cl)cc1	21.2 µM (inactive)
CCC1CNC(=O)CC1CC(=O)OC (configuration not stated)	> 100 µM (inactive)
COc1ccc2[nH]c3c(c2c1)CC(=O)N1CCC[C@H](C1)CC31OCCCO1	> 100 µM (inactive)
CC1(c2cccc(N)c2)C2C(=O)NC(=O)C1C(=O)NC2=O (configuration not stated)	45 µM (inactive)
C=CCNC(=O)N(CCC)CCCC(NC(C)=O)C(=O)NCc1ccccc1 (configuration not stated)	> 100 µM (inactive)
NS(=O)(=O)c1ccc(NC2=CC(=O)C(=O)c3ccccc32)cc1	> 100 µM (inactive)
c1ccc2sc(C3(N4CCCCC4)CCCC3)cc2c1	7.14 µM (inactive)
O=c1c2cccnc2[s+]([O-])n1Cc1ccccc1 (configuration not stated)	> 100 µM (inactive)
COc1nc(N=P(c2ccccc2)(c2ccccc2)c2ccccc2)cc(=O)n1C	> 100 µM (inactive)
NCC1Nc2ccccc2[C@@H](O)C1O (some centres not stated)	> 100 µM (inactive)
CC(C)=CCC/C(C)=C/COC(C)(C)C1=CCC(C)CC1.CC(C)=CCC/C(C)=C/COC1CC(C)CCC1=C(C)C (configuration not stated)	> 100 µM (inactive)
CCOC(=O)C1C(=O)CC1(C)C (configuration not stated)	> 10 µM (inactive)
O=S(=O)(N1CCCCN(S(=O)(=O)C(F)(F)F)CCCN(S(=O)(=O)C(F)(F)F)CCCCN(S(=O)(=O)C(F)(F)F)CCCN(S(=O)(=O)C(F)(F)F)CCCCN(S(=O)(=O)C(F)(F)F)CCCN(S(=O)(=O)C(F)(F)F)CCCCN(S(=O)(=O)C(F)(F)F)CCC1)C(F)(F)F	> 31.6 µM (inactive)
COc1cc([C@@H]2c3cc4c(cc3[C@@H](NC(=O)c3ccc(OC(C)=O)cc3)C3COC(=O)[C@@H]32)OCO4)cc(OC)c1O (some centres not stated)	4.18 µM (inactive)
ClC/C=C/COC1CCCCO1 (configuration not stated)	> 100 µM (inactive)
CN(C)/C=C/C(=O)c1cccc(C(=O)/C=C/N(C)C)n1	> 100 µM (inactive)
O=c1cc(O)c1=O	> 100 µM (inactive)
O=C1C2=Cc3ccccc3OC2(O)Oc2cc3ccccc3cc21 (configuration not stated)	> 100 µM (inactive)
OCc1cc2c(cn1)[nH]c1ccc(NCc3ccccc3)cc12	37.1 µM (inactive)
c1cc2cc(c1)CN1CCNCCN(CCNCC1)Cc1cccc(c1)CN1CCNCCN(CCNCC1)C2	> 100 µM (inactive)

====

# GI50 per entry
test system: HL-60; assay: NCI tumour cell line growth inhibition, 48 h
Active and inactive are the calls of the source. Cut-off read from the data, not from the text of the source: active = GI50 up to about 1.1 µM and inactive = higher. Where a SMILES comes first, the peptide text is derived from it. [ ]: non-standard residue; d: D form. The star is where a group is joined. Phe(4-NO2) = N[CH](Cc1ccc([N+](=O)[O-])cc1)C(=O)O; Boc = CC(C)(C)OC(=O)*

molecule	GI50
COC(=O)c1cc(NC(=O)Cn2c3ccccc3c3ccccc32)cn1C	> 100 µM (inactive)
N=c1n(C(=O)N2CCCC2)c2cc(Cl)ccc2n1C1=NCCN1	38.8 µM (inactive)
CCn1c(O)c(C(=O)NC(C)c2ccc([N+](=O)[O-])cc2)c(=O)n(CC)c1=S (stereo unspecified)	2.28 µM (inactive)
CC(C)SC1SCC2C(=O)N(C)C3(CC3C)C(=O)OCC(NC(=O)c3nc4ccccc4cc3O)C(=O)NC(C)C(=O)N(C)C1C(=O)N(C)C1(CC1C)C(=O)OCC(NC(=O)c1nc3ccccc3cc1O)C(=O)NC(C)C(=O)N2C (stereo unspecified)	< 0.0001 µM (active)
COc1cc(CO)cc2c1[nH]c1ccccc12	> 25 µM (inactive)
N#Cc1ccc(Oc2nc3ccccc3nc2-c2ccccc2)cc1	> 100 µM (inactive)
O=C(NC(Cc1ccc(Cl)cc1)C(=O)O)c1ccc(I)cc1 (stereo unspecified)	> 100 µM (inactive)
O=C(CBr)NCCc1c[nH]c2ccccc12	1.7 µM (inactive)
O=C(O)CN1CCNCCN(CP(=O)(O)O)CC1	3.22 µM (inactive)
CCOCc1nc2c(OC)c(-c3nc4ccc(N5CCN(C)CC5)cc4[nH]3)cc(OC)c2[nH]1	4.39 µM (inactive)
CS(=O)(=O)Nc1ccc2ccccc2c1	> 100 µM (inactive)
Nc1ccc(SC23CC4CC(CC(C4)C2)C3)cc1	> 100 µM (inactive)
COc1ccc(-c2cs/c(=N\c3ccccc3)n2CCCN(C)C)cc1	5.58 µM (inactive)
C[C@H](NS(=O)(=O)c1ccc(NC(=O)c2ccccc2)cc1)C(=O)O	> 100 µM (inactive)
COC(=O)N/N=C(/CCC(=O)Nc1ccc(C)c(C)c1)CC(=O)C(C)(C)C	> 100 µM (inactive)
CCNC(=O)COc1ccc(Cl)c(C)c1	> 100 µM (inactive)
COC(=O)C12C3C4C1C1C2C3C41C(=O)O (stereo unspecified)	> 100 µM (inactive)
O=c1c2cc(I)ccc2nc(-c2cccs2)n1O	34.3 µM (inactive)
S=C(NN=C1NCCCN1)Nc1ccccc1	52.8 µM (inactive)
CC(C)(Oc1ccc(Cl)cc1)C(=O)N(C(=O)N1CCC(c2ccccc2)CC1)c1ccccc1	1.6 µM (inactive)
O=C1c2c(c3c4ccccc4n(CC4CO4)c3c3[nH]c4ccccc4c23)C(=O)N1Cc1ccccc1 (stereo unspecified)	> 100 µM (inactive)
C=CCNC(=O)N(CCC)CCCC(NC(C)=O)C(=O)NCc1ccccc1 (stereo unspecified)	> 100 µM (inactive)
C=CCNc1nc(C#N)c(N)s1	> 10 µM (inactive)
CC(CCCOC(c1ccccc1)(c1ccccc1)c1ccccc1)OC(=O)Nc1ccccc1 (stereo unspecified)	11.6 µM (inactive)
CCOC(=O)C1(C#N)C(c2ccccc2)CC(O)(c2ccc(OC)cc2)C(C(=O)c2ccc(OC)cc2)C1c1ccccc1 (stereo unspecified)	> 100 µM (inactive)
Nc1nc(N)c(N=O)c(Nc2ccc(O)cc2)n1	9.53 µM (inactive)
C/C(CN1C(=O)c2ccccc2C1=O)=N\NS(=O)(=O)c1cccc([N+](=O)[O-])c1	> 100 µM (inactive)
CCOC(=O)C1=C(C)N(c2ccc(C)cc2)C2=C(C(=O)N(c3ccccc3)C2c2ccccc2)C1c1ccccc1 (stereo unspecified)	> 25 µM (inactive)
CCOC(=O)c1[nH]c(COC(C)=O)c(CCCOC(C)=O)c1CCCOC(C)=O	> 100 µM (inactive)
CC(C)(C)OC(=O)N/C=C1\C(=O)Oc2ccccc2C1=O	> 100 µM (inactive)
c1ccc2c(CNCCCCCCCCCCCCNCc3cccc4ccccc34)cccc2c1	1.47 µM (inactive)
COc1ccc(/C=N\N2CC(=O)N3C4C=CC(CC4)N3C2=O)cc1 (stereo unspecified)	53.1 µM (inactive)
CCOC(=O)CCC(NC(=O)C(Cc1ccc([N+](=O)[O-])cc1)NC(=O)OC(C)(C)C)C(=O)NC(CCC(=O)OCC)C(=O)OCC (stereo unspecified) (Boc-[Phe(4-NO2)]-Glu(OEt)-Glu(OEt)-OEt; configuration not given here)	14.9 µM (inactive)
Cc1nn(C(=O)c2ccc(Cl)cc2)c2c1C(c1ccccc1O)SC(=N)N2 (stereo unspecified)	> 10 µM (inactive)
O=C(O)c1c([N+](=O)[O-])cc(C(F)(F)F)cc1[N+](=O)[O-]	> 100 µM (inactive)
CC(=O)NNc1nc(C)c(C(=O)NNC(=O)C(=O)Nc2ccc(Cl)cc2Cl)s1	37.4 µM (inactive)
CC1C(=O)OCC2=CCN3CCC(OC(=O)C(C)C1(C)O)C23 (stereo unspecified)	> 100 µM (inactive)
CC(C)(O)[C@@H]1CC[C@@]2(C)CCCC(O)C2(O)C1 (stereo partly specified)	> 100 µM (inactive)
C=C1C(=O)OC2C1CC(O)/C(C)=C\CCC1(C)OC21 (stereo unspecified)	23.7 µM (inactive)
C[C@@H]1C[C@@H]([C@H](O)CC2CC(=O)NC(=O)C2)C(=O)[C@@H](C)C1 [CYCLOHEXIMIDE]	0.0485 µM (active)
CC1=CC(=O)CC2(C)CC[C@@H]3C[C@]12OC3(C)C (stereo partly specified)	> 100 µM (inactive)

Just for reference, ChEMBL document CHEMBL1201862 is where these values come from.
